outcome_measure: melting point

As a guide, the following entries are already answered.
- compound: "CCOC(=O)c1ccc(C(=O)CC(O)(c2cc(Cl)cc(Cl)c2)C(F)(F)F)cc1C (stereo not drawn)"
  melting point: "72 to 74 °C"
- compound: "C#CCOc1ccc(C(=O)O)c(C2=NC(=O)C(C)(C(C)C)N2)n1 (stereo not drawn)"
  melting point: "195 to 198 °C"
- compound: "CC(C)C1Sc2c(Cl)cccc2NC1=O (stereo not drawn)"
  melting point: "158 to 159 °C"
- compound: "Cc1cc(C(=O)N2Cc3ccc(C(=O)N(CCO)CCO)n3Cc3ccccc32)ccc1-c1ccccc1C(F)(F)F"
  melting point: "127 to 130 °C"
- compound: "I[Si](c1ccccc1)(c1ccccc1)c1ccccc1"
  melting point: "221 to 225 °C"

(Q) Item under review: "CC(=O)c1cnc2c(cnn2Cc2ccco2)c1O" . Reported melting point?
(A) 108 to 110 °C

(Q) Try this compound next: OCC1COC(Cc2nc[nH]n2)(c2ccc(Cl)cc2)O1 (stereo not drawn)
(A) 115 to 117 °C
